Reported IC50 by item:
assayTarget: Vitamin K-dependent protein C (Homo sapiens)
Sequence (P04070 43-197 limits assumed): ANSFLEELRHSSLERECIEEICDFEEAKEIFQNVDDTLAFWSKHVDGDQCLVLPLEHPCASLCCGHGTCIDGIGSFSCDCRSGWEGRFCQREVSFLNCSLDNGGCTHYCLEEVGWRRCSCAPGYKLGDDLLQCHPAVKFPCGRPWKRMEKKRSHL
Sequence (P04070 212-461 limits assumed): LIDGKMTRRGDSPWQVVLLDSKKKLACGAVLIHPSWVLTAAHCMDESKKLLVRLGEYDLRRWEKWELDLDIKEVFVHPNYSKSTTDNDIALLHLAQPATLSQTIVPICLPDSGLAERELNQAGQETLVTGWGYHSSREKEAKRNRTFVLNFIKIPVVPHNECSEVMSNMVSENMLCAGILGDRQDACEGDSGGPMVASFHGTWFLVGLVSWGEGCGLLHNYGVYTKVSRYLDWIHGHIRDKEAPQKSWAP
testProtocol: Inhibitory activity against activated protein C (aPC)
Give the number; µM is assumed, so skip it.

N=C(N)NCCC[C@@H](NS(=O)(=O)Cc1ccccc1)C(=O)NCC(=O)N[C@H](CCCNC(=N)N)C(=O)c1nccs1 = 6
Cc1c(S(=O)(=O)N2CCN(CC(=O)NC(CCCNC(=N)N)C(=O)c3nccs3)C(=O)C2)sc2ccc(Cl)cc12 (configuration not stated) = 169

Now, please, on to the next compound.
In: Could you tell me which IC50 is on file for N=C(N)NCCCC(NC(=O)CN1CCN(S(=O)(=O)c2ccc3c(Cl)cccc3c2)CC1=O)C(=O)c1nccs1 (configuration not stated) ?
Out: 170

====

assayTarget: Prothrombin (Homo sapiens)
testProtocol: In vitro inhibitory activity against serine protease thrombin
Reported log10(IC50) by item:
Values are log10 of IC50 in µM.

N=C(N)NCCC[C@@H](NC(=O)CN1CCN(Cc2ccccc2)CC1=O)C(=O)c1nccs1 = 1.15
N=C(N)NCCC[C@@H](NS(=O)(=O)Cc1ccccc1)C(=O)NCC(=O)N[C@H](CCCNC(=N)N)C(=O)c1nccs1 = 1.00

In: Could you tell me which log10(IC50) is on file for N#Cc1ccc(S(=O)(=O)N2CCN(CC(=O)NC(CCCNC(=N)N)C(=O)c3nccs3)C(=O)C2)cc1 (configuration not stated) ?
Out: 0.48

In: Could you tell me which log10(IC50) is on file for N=C(N)NCCCC(NC(=O)CN1CCN(S(=O)(=O)c2ccc(NO)cc2)CC1=O)C(=O)c1nccs1 (configuration not stated) ?
Out: 0.85

====

testProtocol: In vitro anticoagulant activity was measured by prothrombin time (PT) assay
Type: functional
Reported 2x PT by item:
Give the number; µM is assumed, so skip it.

N=C(N)NCCC[C@@H](NC(=O)CN1CCN(S(=O)(=O)Cc2ccccc2)CC1=O)C(=O)c1nccs1 = 11.7
N=C(N)NCCC[C@@H](NC(=O)CN1CCN(S(=O)(=O)c2ccc(Cl)cc2)CC1=O)C(=O)c1nccs1 = 11.2

In: Could you tell me which 2x PT is on file for N=C(N)NCCCC(NC(=O)CN1CCN(S(=O)(=O)c2ccc3ccccc3c2)CC1=O)C(=O)c1nccs1 (stereo not drawn) ?
Out: 14.5

====

So I've got pIC50 readings for Plasminogen (Homo sapiens, UniProt P00747), take a look.
Please report pIC50 as the negative decimal logarithm of the molar concentration, giving only the number.

Check out these entries, answers already filled in.
N=C(N)NCCC[C@@H](NC(=O)CN1CCN(S(=O)(=O)c2ccc(Cl)cc2)CC1=O)C(=O)c1nccs1 = 4.97
N=C(N)NCCCC(NC(=O)CN1CCN(S(=O)(=O)c2cccc3cccnc23)CC1=O)C(=O)c1nccs1 (stereo unspecified) = 8.00
N=C(N)NCCCC(NC(=O)CN1CCN(S(=O)(=O)c2ccc3ccccc3c2)CC1=O)C(=O)c1nccs1 (stereo unspecified) = 5.16
N=C(N)NCCC[C@@H](NS(=O)(=O)Cc1ccccc1)C(=O)NCC(=O)N[C@H](CCCNC(=N)N)C(=O)c1nccs1 = 6.51
Cc1c(S(=O)(=O)N2CCN(CC(=O)NC(CCCNC(=N)N)C(=O)c3nccs3)C(=O)C2)sc2ccc(Cl)cc12 (stereo unspecified) = 5.89

In: Recorded pIC50 for `N=C(N)NCCC[C@@H](NC(=O)CN1CCN(S(=O)(=O)Cc2ccccc2)CC1=O)C(=O)c1nccs1` with Plasminogen (Homo sapiens, UniProt P00747), please?
Out: 4.92
